Just for reference, ChEMBL document CHEMBL1150976 is where these values come from.

- assayedTarget: Mitogen-activated protein kinase 13 (Homo sapiens)
- experimentNotes: Percentage p38delta activity remaining in the presence of 0.1uM inhibitor
Form field: Activity (one value per entry).
observationType: Activity (%)

compound | assayedTarget | numericResult
CC(C)CCN1c2nc(Nc3cc(F)c(O)c(F)c3)ncc2N(C)C(=O)C1C (stereo unspecified) | Mitogen-activated protein kinase 13 (Homo sapiens) | 105
CC(C)[C@H](CO)Nc1nc(Nc2cccc(Cl)c2)c2ncn(C(C)C)c2n1 [PURVALANOLA] | Mitogen-activated protein kinase 13 (Homo sapiens) | 98
Cc1n[nH]c2ccc(-c3cncc(OC[C@@H](N)Cc4c[nH]c5ccccc45)c3)cc12 | Mitogen-activated protein kinase 13 (Homo sapiens) | 68
Cn1c2ccccc2c2c3c(c4c5ccccc5n(CCC#N)c4c21)CNC3=O | Mitogen-activated protein kinase 13 (Homo sapiens) | 82
Cn1cc(C2=C(c3cn(CCCSC(=N)N)c4ccccc34)C(=O)NC2=O)c2ccccc21 | Mitogen-activated protein kinase 13 (Homo sapiens) | 92
O=C(NCCCNc1nc(Nc2cccc(NC(=O)N3CCCC3)c2)ncc1I)c1cccs1 | Mitogen-activated protein kinase 13 (Homo sapiens) | 76

* * *

- assayedTarget: Myosin light chain kinase, smooth muscle (Homo sapiens, UniProt Q15746)
- Sequence (Q15746 whole entry): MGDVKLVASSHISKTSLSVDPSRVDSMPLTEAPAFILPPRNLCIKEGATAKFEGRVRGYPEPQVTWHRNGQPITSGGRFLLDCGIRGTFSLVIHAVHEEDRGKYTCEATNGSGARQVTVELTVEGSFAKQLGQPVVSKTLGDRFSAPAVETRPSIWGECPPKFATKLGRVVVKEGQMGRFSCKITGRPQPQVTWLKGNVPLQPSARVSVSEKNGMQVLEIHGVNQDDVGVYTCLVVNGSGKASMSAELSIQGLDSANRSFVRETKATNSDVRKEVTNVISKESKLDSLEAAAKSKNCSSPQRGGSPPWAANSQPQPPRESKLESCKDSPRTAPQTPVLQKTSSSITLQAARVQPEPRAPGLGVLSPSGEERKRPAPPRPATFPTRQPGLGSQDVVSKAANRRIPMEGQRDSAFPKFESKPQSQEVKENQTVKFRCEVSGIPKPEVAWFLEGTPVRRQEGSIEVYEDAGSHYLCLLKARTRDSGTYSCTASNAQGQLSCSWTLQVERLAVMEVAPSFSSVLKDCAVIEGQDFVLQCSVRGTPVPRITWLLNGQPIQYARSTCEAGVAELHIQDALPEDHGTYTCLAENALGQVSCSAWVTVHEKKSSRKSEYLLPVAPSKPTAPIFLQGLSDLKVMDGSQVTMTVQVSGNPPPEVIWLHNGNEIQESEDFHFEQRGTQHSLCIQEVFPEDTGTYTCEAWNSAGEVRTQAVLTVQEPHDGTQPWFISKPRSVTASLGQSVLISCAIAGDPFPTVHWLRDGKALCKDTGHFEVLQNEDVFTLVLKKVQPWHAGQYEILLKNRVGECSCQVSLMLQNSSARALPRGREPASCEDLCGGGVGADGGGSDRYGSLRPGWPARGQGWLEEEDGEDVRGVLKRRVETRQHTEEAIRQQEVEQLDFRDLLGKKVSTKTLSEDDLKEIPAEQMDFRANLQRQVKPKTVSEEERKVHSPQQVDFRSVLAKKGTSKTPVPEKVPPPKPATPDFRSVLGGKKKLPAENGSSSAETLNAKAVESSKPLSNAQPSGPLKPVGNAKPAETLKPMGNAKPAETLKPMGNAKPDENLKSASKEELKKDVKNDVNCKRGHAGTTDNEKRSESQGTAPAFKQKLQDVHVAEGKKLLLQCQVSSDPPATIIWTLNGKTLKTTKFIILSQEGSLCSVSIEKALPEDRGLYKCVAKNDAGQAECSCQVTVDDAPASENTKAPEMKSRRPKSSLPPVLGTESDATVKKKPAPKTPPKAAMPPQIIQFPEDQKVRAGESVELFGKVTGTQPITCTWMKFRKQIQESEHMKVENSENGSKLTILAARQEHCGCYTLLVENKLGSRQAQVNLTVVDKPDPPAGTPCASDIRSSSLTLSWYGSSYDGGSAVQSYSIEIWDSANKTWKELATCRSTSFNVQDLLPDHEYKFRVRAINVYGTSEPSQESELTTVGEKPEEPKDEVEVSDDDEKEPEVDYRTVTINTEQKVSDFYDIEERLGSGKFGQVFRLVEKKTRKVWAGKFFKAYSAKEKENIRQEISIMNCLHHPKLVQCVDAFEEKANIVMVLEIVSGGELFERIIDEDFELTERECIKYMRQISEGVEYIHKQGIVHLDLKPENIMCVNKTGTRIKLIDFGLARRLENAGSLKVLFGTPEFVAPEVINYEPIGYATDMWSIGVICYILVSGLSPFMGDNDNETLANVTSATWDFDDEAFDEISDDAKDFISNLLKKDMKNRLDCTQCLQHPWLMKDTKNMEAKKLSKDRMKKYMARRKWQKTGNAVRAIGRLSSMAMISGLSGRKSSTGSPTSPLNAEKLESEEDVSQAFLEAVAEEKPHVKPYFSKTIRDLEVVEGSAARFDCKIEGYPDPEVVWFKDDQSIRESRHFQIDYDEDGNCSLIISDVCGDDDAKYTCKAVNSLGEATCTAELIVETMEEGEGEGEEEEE
- experimentNotes: Percentage SmMLCK activity remaining in the presence of 0.1uM inhibitor
Form field: Activity (one value per entry).
observationType: Activity (%)

compound | observationType | valueUnits | numericResult
Cn1cc(C2=C(c3cn(CCCSC(=N)N)c4ccccc34)C(=O)NC2=O)c2ccccc21 | Activity | % | 63
CC(C)CCN1c2nc(Nc3cc(F)c(O)c(F)c3)ncc2N(C)C(=O)C1C (stereo not given) | Activity | % | 107
CC(C)[C@H](CO)Nc1nc(Nc2cccc(Cl)c2)c2ncn(C(C)C)c2n1 | Activity | % | 86
CN(C)C[C@@H]1CCn2cc(c3ccccc32)C2=C(C(=O)NC2=O)c2cn(c3ccccc23)CCO1 | Activity | % | 66
O=C(NCCCNc1nc(Nc2cccc(NC(=O)N3CCCC3)c2)ncc1I)c1cccs1 | Activity | % | 95

* * *

- assayedTarget: UniProt:O75582
- Sequence (O75582 whole entry, looked up): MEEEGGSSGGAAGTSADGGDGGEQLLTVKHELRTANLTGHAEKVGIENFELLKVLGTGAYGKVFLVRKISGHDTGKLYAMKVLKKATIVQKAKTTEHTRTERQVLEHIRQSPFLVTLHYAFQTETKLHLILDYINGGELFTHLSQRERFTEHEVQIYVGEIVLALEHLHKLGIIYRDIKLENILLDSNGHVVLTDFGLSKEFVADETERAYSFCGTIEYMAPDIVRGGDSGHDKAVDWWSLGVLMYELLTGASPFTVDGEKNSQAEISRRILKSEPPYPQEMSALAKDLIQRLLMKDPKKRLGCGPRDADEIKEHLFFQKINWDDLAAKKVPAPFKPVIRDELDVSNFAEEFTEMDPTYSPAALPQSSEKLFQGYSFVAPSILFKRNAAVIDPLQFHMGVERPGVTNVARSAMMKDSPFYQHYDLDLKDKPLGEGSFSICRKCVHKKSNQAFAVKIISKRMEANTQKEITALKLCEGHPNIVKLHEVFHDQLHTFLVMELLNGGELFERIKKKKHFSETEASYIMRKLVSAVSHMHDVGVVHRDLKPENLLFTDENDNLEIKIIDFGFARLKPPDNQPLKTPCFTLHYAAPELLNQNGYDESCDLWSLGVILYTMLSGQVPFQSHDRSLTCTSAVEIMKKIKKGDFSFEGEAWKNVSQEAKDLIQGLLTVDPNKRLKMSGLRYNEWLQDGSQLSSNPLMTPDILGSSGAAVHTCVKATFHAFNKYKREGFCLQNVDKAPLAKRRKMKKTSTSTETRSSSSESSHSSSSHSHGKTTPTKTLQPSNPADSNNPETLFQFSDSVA
- experimentNotes: Percentage MSK1 activity remaining in the presence of 0.1uM inhibitor
- cond: filed as antagonist
observationType: Activity (%)

structure | assayedTarget | observationType | valueUnits | numericResult
Cn1c2ccccc2c2c3c(c4c5ccccc5n(CCC#N)c4c21)CNC3=O | UniProt:O75582 | Activity | % | 6
CN(C)C[C@@H]1CCn2cc(c3ccccc32)C2=C(C(=O)NC2=O)c2cn(c3ccccc23)CCO1 | UniProt:O75582 | Activity | % | 44
Cc1n[nH]c2ccc(-c3cncc(OC[C@@H](N)Cc4c[nH]c5ccccc45)c3)cc12 | UniProt:O75582 | Activity | % | 9
Cn1cc(C2=C(c3cn(CCCSC(=N)N)c4ccccc34)C(=O)NC2=O)c2ccccc21 | UniProt:O75582 | Activity | % | 11

* * *

- assayedTarget: Proto-oncogene tyrosine-protein kinase Src (Gallus gallus)
- experimentNotes: Percentage Src activity remaining in the presence of 0.1uM inhibitor
Form field: Activity (one value per entry).

compound | assayedTarget | valueUnits | Activity
O=C(NCCCNc1nc(Nc2cccc(NC(=O)N3CCCC3)c2)ncc1I)c1cccs1 | Proto-oncogene tyrosine-protein kinase Src (Gallus gallus) | % | 77
CC(C)CCN1c2nc(Nc3cc(F)c(O)c(F)c3)ncc2N(C)C(=O)C1C (stereo unspecified) | Proto-oncogene tyrosine-protein kinase Src (Gallus gallus) | % | 96
Cn1cc(C2=C(c3cn(CCCSC(=N)N)c4ccccc34)C(=O)NC2=O)c2ccccc21 | Proto-oncogene tyrosine-protein kinase Src (Gallus gallus) | % | 91
Cn1c2ccccc2c2c3c(c4c5ccccc5n(CCC#N)c4c21)CNC3=O | Proto-oncogene tyrosine-protein kinase Src (Gallus gallus) | % | 65
Cc1n[nH]c2ccc(-c3cncc(OC[C@@H](N)Cc4c[nH]c5ccccc45)c3)cc12 | Proto-oncogene tyrosine-protein kinase Src (Gallus gallus) | % | 86
CN(C)C[C@@H]1CCn2cc(c3ccccc32)C2=C(C(=O)NC2=O)c2cn(c3ccccc23)CCO1 | Proto-oncogene tyrosine-protein kinase Src (Gallus gallus) | % | 97
